test system: Picrophilus torridus HPPD "SEQ ID No. 5"; test: biochemical; assay type: biochemical; conditions: SEQ ID No. 5; 5.0 × 10^−6M inhibitor
Would you mind telling me the reported percentage of inhibition compared to the activity measured in absence of the inhibitor of each entry?
Numbers only, in %.

Here is how some compounds turned out for percentage of inhibition compared to the activity measured in absence of the inhibitor.
COMPOUND	RESULT UNIT	OBS VALUE
CS(=O)(=O)c1ccc(C(=O)C2C(=O)CCCC2=O)c(Cl)c1COCC1CCCO1 (stereo not drawn)	%	87.
Cc1nn(C)c(O)c1C(=O)c1ccc(C(F)(F)F)cc1S(C)(=O)=O	%	7
CS(=O)(=O)c1ccc(C(=O)C2C(=O)CCCC2=O)c(Cl)c1COCC(F)(F)F	%	58
COCCOCc1nc(C(F)(F)F)ccc1C(=O)C1=C(O)C2CCC(C2)C1=O (stereo not drawn)	%	24
CS(=O)(=O)c1cc(C(F)(F)F)ccc1C(=O)C(C#N)C(=O)C1CC1 (stereo not drawn)	%	26

query: Form field - read-out: percentage of inhibition compared to the activity measured in absence of the inhibitor; system: Picrophilus torridus HPPD "SEQ ID No. 5"; submitted item: Cc1ccc(C(=O)COc2c(C(=O)c3ccc(Cl)c(C)c3Cl)c(C)nn2C)cc1
result: 44

###

target: (UniProt Q6KZ98); assay: biochemical; format: biochemical, Picrophilus torridus; settings: read-out: pI50 (converted)
VALUE KIND: IC50 (µM)
Numbers only, in µM.

MOLECULE	SYSTEM TESTED	OBS VALUE
CS(=O)(=O)c1cc(C(F)(F)F)ccc1C(=O)C(C#N)C(=O)C1CC1 (stereo not shown) [Diketonitrile]	(UniProt Q6KZ98)	12.6
Cc1ccc(C(=O)COc2c(C(=O)c3ccc(Cl)c(C)c3Cl)c(C)nn2C)cc1 [Benzofenap]	(UniProt Q6KZ98)	15.8
COCCOCc1nc(C(F)(F)F)ccc1C(=O)C1=C(O)C2CCC(C2)C1=O (stereo not shown) [Bicyclopyrone]	(UniProt Q6KZ98)	398

query: Reported IC50 for CS(=O)(=O)c1ccc(C(=O)C2C(=O)CCCC2=O)c(Cl)c1COCC1CCCO1 (stereo not shown) [Tefuryltrione] : what is it?
result: 3.16

Source: patent US20150167016A1
